# subject_of_test: PDE4B1 (Homo sapiens)
# Construct: purchased BPS 60041
# Sequence (Q07343 whole entry): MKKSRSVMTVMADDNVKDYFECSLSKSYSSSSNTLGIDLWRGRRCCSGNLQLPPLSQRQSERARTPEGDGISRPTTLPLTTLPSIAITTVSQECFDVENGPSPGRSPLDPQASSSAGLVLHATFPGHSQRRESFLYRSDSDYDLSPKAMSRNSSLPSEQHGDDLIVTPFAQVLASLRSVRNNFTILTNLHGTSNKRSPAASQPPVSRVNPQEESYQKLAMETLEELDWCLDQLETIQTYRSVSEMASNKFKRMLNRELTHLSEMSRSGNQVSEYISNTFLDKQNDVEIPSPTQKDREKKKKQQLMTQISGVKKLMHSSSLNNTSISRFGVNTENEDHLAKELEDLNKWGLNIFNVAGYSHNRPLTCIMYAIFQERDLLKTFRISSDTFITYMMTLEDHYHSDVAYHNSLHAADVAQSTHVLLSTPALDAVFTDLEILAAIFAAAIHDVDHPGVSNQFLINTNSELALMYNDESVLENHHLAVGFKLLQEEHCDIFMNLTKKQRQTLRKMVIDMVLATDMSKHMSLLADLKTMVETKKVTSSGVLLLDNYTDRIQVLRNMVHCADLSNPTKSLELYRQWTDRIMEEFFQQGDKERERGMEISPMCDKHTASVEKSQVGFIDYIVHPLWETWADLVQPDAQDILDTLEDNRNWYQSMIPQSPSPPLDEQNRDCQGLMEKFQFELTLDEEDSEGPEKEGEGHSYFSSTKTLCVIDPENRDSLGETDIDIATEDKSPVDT
# test: PDE4 activity inhibition assay, PDE4B1
# Format: biochemical
# assay_setup: FAM-cAMP substrate, 30 minutes at room temperature
measured_metric: IC50 (nM)

Here are 4 compounds together with their reported answers.
> print(dat)
                                   compound  unit.abbreviation  recorded.number
1  [2H]C([2H])([2H])Oc1ccc([C@H](CS(C)(=O)=O)N2C(=O)c3c(F)ccc(NC(C)=O)c3C2=O)cc1OCC                 nM               70
2  CCOc1nc(C(CS(C)(=O)=O)N2C(=O)c3cccc(NC(=O)COC)c3C2=O)ccc1OC (stereo not shown)                 nM              7.9
3  [2H]C([2H])([2H])Oc1ccc([C@@H](CS(C)(=O)=O)N2C(=O)c3cccc(NC(C)=O)c3C2=O)nc1OCC                 nM              5.1
4  CCOc1nc(C(CS(C)(=O)=O)N2C(=O)c3cccc(NC(=O)CN(C)C)c3C2=O)ccc1OC (stereo not shown)                 nM             21.9

[I] [2H]C([2H])([2H])Oc1ccc([C@@H](CS(C)(=O)=O)N2C(=O)c3c(F)ccc(NC(C)=O)c3C2=O)cc1OCC
[II] CCOc1cc(C(CS(C)(=O)=O)N2C(=O)c3cccc(NC(C)=O)c3C2=O)cnc1OC (stereo not shown)
[III] [2H]C([2H])([2H])Oc1ccc([C@H](CS(C)(=O)=O)N2C(=O)c3cc(F)cc(NC(C)=O)c3C2=O)cc1OC([2H])([2H])[2H]
Prompt: Rank the items in ascending order with respect to IC50. Lab note: final answer is the ordered label list.
Completion: I, II, III

All figures here come from patent US11337964B2.
